Target: T1, HUMAN B7H3 (Biacore analyte) (human, UniProt Q5ZPR3 29-461, limits assumed)
T1 construct: also called hB7H3
T1 sequence (looked up): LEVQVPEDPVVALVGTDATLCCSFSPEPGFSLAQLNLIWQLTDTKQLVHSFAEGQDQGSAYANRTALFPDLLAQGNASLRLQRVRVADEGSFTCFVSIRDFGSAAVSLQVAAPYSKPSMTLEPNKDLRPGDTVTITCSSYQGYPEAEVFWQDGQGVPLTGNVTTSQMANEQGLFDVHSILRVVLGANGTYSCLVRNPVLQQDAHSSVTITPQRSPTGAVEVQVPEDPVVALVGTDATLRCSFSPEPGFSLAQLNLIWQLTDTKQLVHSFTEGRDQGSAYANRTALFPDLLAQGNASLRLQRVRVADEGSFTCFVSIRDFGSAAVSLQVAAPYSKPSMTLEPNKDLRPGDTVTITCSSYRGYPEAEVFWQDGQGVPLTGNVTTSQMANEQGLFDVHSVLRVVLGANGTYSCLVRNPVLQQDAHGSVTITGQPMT
Experiment: SPR, Biacore 8K, antibody captured, B7H3 as analyte, 1:1 binding
pKd: −log10 of the molar value.
property-name: pKd

[[record]]
binder = "MGC018 (antibody, V domains shown) VH: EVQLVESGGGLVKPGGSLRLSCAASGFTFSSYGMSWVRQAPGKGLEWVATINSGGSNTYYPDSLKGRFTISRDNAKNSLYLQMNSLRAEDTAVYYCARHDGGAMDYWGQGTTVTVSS VL: DIQMTQSPSSLSASVGDRVTITCRASESIYSYLAWYQQKPGKAPKLLVYNTKTLPEGVPSRFSGSGSGTDFTLTISSLQPEDFATYYCQHHYGTPPWTFGQGTRLEIKR"
experimental_value = 9.34

[[record]]
binder = "15-G1-D1-E3 (human IgG1 chimeric antibody) (antibody, V domains shown, human IgG1 chimeric antibody of the mouse clone) VH: QVQLQQPGAELVKPGTSVKLSCKASGYTFTSYWIHWVKQRPGQGLEWIGMIHPKSGTVDYNEKFKSKATLTADKSSNTAYMQLSSLTSEASVVYYCARGENYDYRPQFVYWGQGTLVTVSA VL: QLVLTQSSSASFSLGASAKLTCTLSSQHSTYTIEWYQQQPLKPPKYVMELKKDGSHRTGDGIPDRFSGSSSGADRYLSISNIQPEDEAIYICGVGDTIKEQFVYVFGGGTKVTVL"
experimental_value = 9.42

[[record]]
binder = "10-G6-C4-B2 (human IgG1 chimeric antibody) (antibody, V domains shown, human IgG1 chimeric antibody of the mouse clone) VH: EVQLVESGGGLVQPGGSLRLSCATSGFTLSDYYMSWVRQPPGKAPEWLGFMRNKANGYTTEYSASVRGRFTISRDTSQSIIYLQMNTLRAEDGATYYCVRDRDGRPFAYWGQGTLVTVSA VL: DIVMTQSPSSLTVTAGEKVTMSCKSSQSLLNSINQKNFLTWYQQKPGQPPKLLIYWASTRESGVPDRFTGSGSGTDFTLTISSVQAEDLAIYYCQNDYTYPLTFGTGTKLELK"
experimental_value = 9.11

[[record]]
binder = "25-D3-G4-C6 (human IgG1 chimeric antibody) (antibody, V domains shown, human IgG1 chimeric antibody of the mouse clone) VH: EIQLQQTGPELVKPGASVKISCKASGYSFTDYIILWVKQSHGMSLEWIGNINPYYNSTYYNLKFKGKATLTVDKSSSTAYMQLDSLTSEDSAVYYCARDSFDWYFGVWGAGTTVTVSS VL: DVVMTQTPLSLPVSLGDQASISCRSSQSLVHSNGNTYLHWYLQKPGQSPKLLIYKVSNRFSGVPDRFSGSGSGTDFTLKISRVETEDLGIYFCSQSTHVPPLTFGAGTKLELK"
experimental_value = 8.64

[[record]]
binder = "27-F8-E10-E11 (human IgG1 chimeric antibody) (antibody, V domains shown, human IgG1 chimeric antibody of the mouse clone) VH: EVQLQQSGPELVKPGASVKISCKTSGYTFTEYAMHWVKQSHGKILEWIGGINPNIGGTTYNQKFKDKATLTVDKSSSTASMELRSLTSEDSAVYYCARFLVPSTEGFTYWGQGTLVTVSA VL: QIVLTQSPAIMSASPGEKVTMTCSASSSVSYMHWYQQKSGTSPKRWIYDTSRVASGVPARFSGSGSGTSYSLTISSMEAEDAATYYCQQWSSNPLTFGAGTKLELK"
experimental_value = 9.21

